Source of measurements: ChEMBL document CHEMBL2434853

Listing: IC50 of selected compounds
- System: HEK293
- run.description: Cytotoxicity against HEK293 cells after 2 days by CCK-8 assay
- Assay type: functional, cell-based
- condition: Homo sapiens, HEK293, 48 h
Please respond with the number in µM and leave the unit unwritten.

Consider the reported IC50 for these compounds:
compound	IC50, µM
CCCNCC(O)COc1cc(O)c2c(=O)c3ccccc3oc2c1 (stereo not drawn)	4.28
CCCNCC(O)COc1cc(O)c2c(=O)c3cccc(OC)c3oc2c1 (stereo not drawn)	3.62
CCCCCNCC(O)COc1cc(O)c2c(=O)c3cccc(OC)c3oc2c1 (stereo not drawn)	7.22
COc1cc([C@@H]2c3cc4c(cc3[C@@H](O[C@@H]3O[C@@H]5CO[C@@H](C)O[C@H]5[C@H](O)[C@H]3O)[C@H]3COC(=O)[C@H]23)OCO4)cc(OC)c1O [ETOPOSIDE]	0.72

Query: What value of IC50 has been recorded for this entry: CCCCNCC(O)COc1cc(O)c2c(=O)c3cccc(OC)c3oc2c1 (stereo not drawn)
Result: 1.74

Query: What value of IC50 has been recorded for this entry: CCCCCCNCC(O)COc1cc(O)c2c(=O)c3cccc(OC)c3oc2c1 (stereo not drawn)
Result: 4.53

Query: What value of IC50 has been recorded for this entry: COc1cccc2c1C(=O)c1c(O)c3c(c(O)c1C2=O)C[C@@](O)(C(=O)CO)C[C@@H]3O[C@H]1C[C@H](N)[C@H](O)[C@H](C)O1 [DOXORUBICIN]
Result: 3.07

Query: What value of IC50 has been recorded for this entry: CCCCNCC(O)COc1cc(O)c2c(=O)c3ccccc3oc2c1 (stereo not drawn)
Result: 3.44

====

Listing: inhibition of selected compounds
- system.under.test: DNA topoisomerase 2-alpha (Homo sapiens)
- Sequence (P11388 whole entry): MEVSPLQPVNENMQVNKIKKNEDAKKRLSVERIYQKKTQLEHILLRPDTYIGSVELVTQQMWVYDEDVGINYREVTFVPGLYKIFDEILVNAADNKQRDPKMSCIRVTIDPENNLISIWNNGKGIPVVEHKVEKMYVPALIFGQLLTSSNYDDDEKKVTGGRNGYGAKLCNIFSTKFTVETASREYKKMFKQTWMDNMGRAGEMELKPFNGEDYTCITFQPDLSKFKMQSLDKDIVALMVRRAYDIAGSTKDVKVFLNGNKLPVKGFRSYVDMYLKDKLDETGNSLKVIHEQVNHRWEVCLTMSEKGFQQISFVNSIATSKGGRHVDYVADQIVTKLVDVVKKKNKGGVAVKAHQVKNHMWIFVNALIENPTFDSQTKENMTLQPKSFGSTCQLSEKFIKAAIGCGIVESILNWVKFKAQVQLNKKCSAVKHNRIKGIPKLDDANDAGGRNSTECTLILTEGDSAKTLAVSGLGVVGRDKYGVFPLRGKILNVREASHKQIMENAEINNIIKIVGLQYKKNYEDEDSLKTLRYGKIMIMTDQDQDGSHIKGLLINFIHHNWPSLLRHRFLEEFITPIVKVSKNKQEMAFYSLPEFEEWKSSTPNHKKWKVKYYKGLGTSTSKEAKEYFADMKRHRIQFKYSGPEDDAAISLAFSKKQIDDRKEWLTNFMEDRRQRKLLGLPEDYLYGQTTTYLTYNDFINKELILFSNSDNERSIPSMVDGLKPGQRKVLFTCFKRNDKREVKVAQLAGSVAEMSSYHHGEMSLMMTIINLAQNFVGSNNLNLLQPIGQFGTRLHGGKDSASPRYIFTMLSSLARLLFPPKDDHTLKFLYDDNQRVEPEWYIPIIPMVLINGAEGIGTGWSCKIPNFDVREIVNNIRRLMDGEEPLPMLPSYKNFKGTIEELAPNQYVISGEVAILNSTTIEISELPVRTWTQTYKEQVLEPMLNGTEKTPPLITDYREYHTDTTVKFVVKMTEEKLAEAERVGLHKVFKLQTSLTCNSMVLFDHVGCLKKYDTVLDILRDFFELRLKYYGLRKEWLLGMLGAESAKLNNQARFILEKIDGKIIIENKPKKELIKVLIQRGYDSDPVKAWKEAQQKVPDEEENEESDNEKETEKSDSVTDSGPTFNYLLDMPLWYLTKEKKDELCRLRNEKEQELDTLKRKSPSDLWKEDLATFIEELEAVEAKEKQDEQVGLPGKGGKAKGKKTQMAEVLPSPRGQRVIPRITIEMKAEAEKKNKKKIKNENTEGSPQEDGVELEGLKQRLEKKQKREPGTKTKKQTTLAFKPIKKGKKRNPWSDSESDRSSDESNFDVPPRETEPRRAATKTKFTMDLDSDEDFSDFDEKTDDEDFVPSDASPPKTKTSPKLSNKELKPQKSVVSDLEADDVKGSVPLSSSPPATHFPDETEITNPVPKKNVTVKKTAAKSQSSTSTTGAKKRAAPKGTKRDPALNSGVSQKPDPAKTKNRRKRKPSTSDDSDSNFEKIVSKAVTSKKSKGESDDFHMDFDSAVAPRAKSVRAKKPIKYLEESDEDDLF
- run.description: Inhibition of human DNA topoisomerase-2alpha assessed as relaxation of supercoiled pBR322 DNA at 10 uM after 30 mins by agarose gel electrophoresis relative to control

compound	value.observed
CCCCCCNCC(O)COc1cc(O)c2c(=O)c3cccc(OC)c3oc2c1 (centres undefined)	0%
CCCCCCNCC(O)COc1cc(O)c2c(=O)c3ccccc3oc2c1 (centres undefined)	0%
CCCNCC(O)COc1cc(O)c2c(=O)c3cccc(OC)c3oc2c1 (centres undefined)	6%
CCCCCNCC(O)COc1cc(O)c2c(=O)c3cccc(OC)c3oc2c1 (centres undefined)	2%
CCCCCNCC(O)COc1cc(O)c2c(=O)c3ccccc3oc2c1 (centres undefined)	0.7%

Query: What value of inhibition has been recorded for this entry: CCCCNCC(O)COc1cc(O)c2c(=O)c3ccccc3oc2c1 (centres undefined)
Result: 64%

Query: What value of inhibition has been recorded for this entry: CCCNCC(O)COc1cc(O)c2c(=O)c3ccccc3oc2c1 (centres undefined)
Result: 50.2%

Query: What value of inhibition has been recorded for this entry: CCCCNCC(O)COc1cc(O)c2c(=O)c3cccc(OC)c3oc2c1 (centres undefined)
Result: 24.2%

Query: What value of inhibition has been recorded for this entry: COc1cc([C@@H]2c3cc4c(cc3[C@@H](O[C@@H]3O[C@@H]5CO[C@@H](C)O[C@H]5[C@H](O)[C@H]3O)[C@H]3COC(=O)[C@H]23)OCO4)cc(OC)c1O [ETOPOSIDE]
Result: 18%
